The origin of these recorded values is paper PMC9749896.

system: Ba/F3 EGFR^L858R/T790M/C797S cells; test: cells; conditions: Mus musculus, BaF3, read-out: cell EC50, Ba/F3 EGFR L858R/T790M/C797S
READOUT_LABEL: pEC50
Bear in mind: pEC50 is minus log10 of a mol/L concentration; give just that figure.

response.value for CN1CCC(c2ccc(-c3ccc4ncn(C(C(=O)Nc5nccs5)c5ccccc5)c(=O)c4c3)cc2)CC1 (stereo not shown) (field: pEC50) = 7.30
